Measured values drawn from ChEMBL document CHEMBL1201862 for this set.

# Protocol summary: cells;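 note: proteasome chymotrypsin-like activity measured in U2OS cells; potency is for inhibition of proteasome activity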
# Type: functional, cell-based
The source made the active and inactive calls. Cut-off read from the data, not from the text of the source: actives have a measured EC50 and inactives only a lower limit.
Reported EC50 values for a set of compounds
Property name: EC50

>  <Compound>
Oc1ccc(/C=N/NC(=S)NC2CC3CCC2C3)cc1 (stereo not given)

>  <Recorded result>
> 350 µM (not active)

$$$$
>  <Compound>
Cc1ccc(CNc2ccc3c(c2)nc(C)n3C)cc1

>  <Recorded result>
34.6 µM (active)

$$$$
>  <Compound>
CCN1/C(=C/c2ccc3cc(C)ccc3[n+]2CC)Sc2ccccc21

>  <Recorded result>
> 350 µM (not active)

$$$$
>  <Compound>
CCN(CC)CCC(=O)Nc1cccc2c1C(=O)c1ccccc1C2=O

>  <Recorded result>
59.3 µM (active)

$$$$
>  <Compound>
O=C(/C=C/c1ccco1)Nc1ccc(Oc2ccccc2)cc1

>  <Recorded result>
6.08 µM (active)

$$$$
